molecular target: Xenopus laevis Aurora B/INCENP complex (Xenopus laevis, UniProt Q6DE08); construct: equipped at the N-terminal position with a GST tag (amino acids 60-361); GST (N, cleaved yes); made in house; host or cells: E. coli BL21 (DE3); test: Aurora-B kinase assay (radioactive enzyme inhibition assay); assay type: biochemical; details: test substance at 1 μM; percentage of the positive control (maximum value without test substance)
Sequence (Q6DE08 60-361): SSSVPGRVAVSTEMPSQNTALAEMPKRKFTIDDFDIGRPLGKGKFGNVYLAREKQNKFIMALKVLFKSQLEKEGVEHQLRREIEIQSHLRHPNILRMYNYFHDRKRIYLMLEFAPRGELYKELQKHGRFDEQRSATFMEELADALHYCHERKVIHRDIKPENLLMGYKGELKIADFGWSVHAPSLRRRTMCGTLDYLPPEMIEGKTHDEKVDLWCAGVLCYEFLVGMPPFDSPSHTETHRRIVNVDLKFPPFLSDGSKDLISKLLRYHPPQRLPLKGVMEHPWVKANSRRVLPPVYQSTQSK
Sequence (O13024 790-847 partner limits assumed): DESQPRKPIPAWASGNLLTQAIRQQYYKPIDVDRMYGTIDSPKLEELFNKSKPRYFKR
Could you mark each record class 1 if its remaining activity at 1 µM falls strictly under 3%, and class 0 if it equals or exceeds it?

Field: example entries. Status: answers known.
**Q:** Just wondering, is remaining activity at 1 µM of CC(C)Nc1ccc(-c2ccc3c(c2)NC(=O)/C3=C(\Nc2ccc(C(C)(C)C(=O)NC3CCN(C)CC3)cc2)c2ccccc2)cn1 [Example 102] below 3%?
**A:** class 1

**Q:** Lab log: compare recorded remaining activity at 1 µM with 3%; is it strictly lower for CN(C)Cc1ccc(N/C(=C2\C(=O)Nc3cc(-c4cccc(S(N)(=O)=O)c4)ccc32)c2ccccc2)cc1 [Example 67] ?
**A:** class 0

**Q:** Please determine if O=C(C#Cc1ccc2c(c1)NC(=O)/C2=C(\Nc1ccc(CN2CCCC2)cc1)c1ccccc1)Nc1ccccc1 [Example 174] is below 3% in terms of remaining activity at 1 µM.
**A:** class 1

**Q:** Confirm or reject: remaining activity at 1 µM of CNC(=O)C#Cc1cc2c(cc1F)/C(=C(/Nc1ccc(CN(C)C)cc1)c1ccccc1)C(=O)N2 [Example 158] lies strictly below 3%
**A:** class 0

**Q:** hey, is remaining activity at 1 µM for CCNC(=O)C#Cc1ccc2c(c1)NC(=O)/C2=C(\Nc1ccc(CN(C)C)c(Cl)c1)c1ccccc1 [Example 177] lower than 3% or not?
**A:** class 1

**Q:** Does this compound meet the criterion remaining activity at 1 µM < 3%? CCCNc1ncc(-c2ccc3c(c2)NC(=O)/C3=C(\Nc2ccc(CN(C)C)cc2)c2ccccc2)cn1 [Example 50]
**A:** class 1

**Q:** Dear colleague, could you confirm whether remaining activity at 1 µM of CC(C)CN1CCN(C(=O)c2ccc(N/C(=C3\C(=O)Nc4cc(-c5ccc(NC(C)C)nc5)ccc43)c3ccccc3)cc2)CC1 [Example 114] falls below 3%? Thanks.
**A:** class 0

**Q:** Field: below-cutoff. Rule: recorded remaining activity at 1 µM strictly less than 3%. Subject: CC(C)Nc1ccc(-c2ccc3c(c2)NC(=O)/C3=C(\Nc2ccc(CN(C)C)cc2)c2ccccc2)cn1 [Example 58]
**A:** class 0

Continuing:
**Q:** Decide: remaining activity at 1 µM of CN(C)Cc1ccc(N/C(=C2\C(=O)Nc3cc(C#CC(=O)NCCO)ccc32)c2ccccc2)cc1 [Example 166] strictly below 3%?
**A:** class 1

**Q:** # strict comparison: is reported remaining activity at 1 µM < 3%? input = CC(C)Nc1ccc(-c2ccc3c(c2)NC(=O)/C3=C(\Nc2ccc(C(=O)N3CCN(C4CC4)CC3)cc2)c2ccccc2)cn1 [Example 126]
**A:** class 0

----------
Please provide measured remaining activity at 1 µM for the entries that follow.
target: Xenopus laevis Aurora B/INCENP complex (Xenopus laevis); construct: equipped at the N-terminal position with a GST tag (amino acids 60-361); GST (N, cleaved yes); made in house; host or cells: E. coli BL21 (DE3); experiment: Aurora-B kinase assay (radioactive enzyme inhibition assay); assay type: biochemical; conditions: test substance at 1 μM; percentage of the positive control (maximum value without test substance)
Answers are plain numbers, in %.

Consider the worked cases shown below.
**Q:** Give the reported value of remaining activity at 1 µM for this record: "CCNc1ncc(-c2ccc3c(c2)NC(=O)/C3=C(\Nc2ccc(CN(C)C)cc2)c2ccccc2)cn1"
**A:** 2.78

**Q:** Read off the recorded remaining activity at 1 µM for "CC(C)Nc1ncc(-c2ccc3c(c2)NC(=O)/C3=C(\Nc2ccc(OCCN3CCCC3)cc2)c2ccccc2)cn1"
**A:** 3.13

Please state, for each entry, its recorded remaining activity at 1 µM.
1. CCN1CCC2(CCN(C(=O)c3ccc(N/C(=C4\C(=O)Nc5cc(-c6ccc(NC(C)C)nc6)ccc54)c4ccccc4)cc3OC)C2)C1 (stereo not shown)
2. CC(=O)Nc1ccc(-c2ccc3c(c2)NC(=O)/C3=C(\Nc2ccc(CN(C)C)cc2)c2ccccc2)cn1
3. CC(C)Nc1ccc(-c2ccc3c(c2)NC(=O)/C3=C(\Nc2ccc(C(=O)NC3CCN(C)CC3)cc2)c2ccccc2)cn1

**A:**
[1.71, 1.96, 2.26]

Hi! Can you tell me remaining activity at 1 µM for each of these compounds?
1. COc1cc(N/C(=C2\C(=O)Nc3cc(-c4ccc(NC(C)C)nc4)ccc32)c2ccccc2)ccc1C(=O)N1CCN(C)CC1
2. CN(C)Cc1ccc(N/C(=C2\C(=O)Nc3cc(-c4cnc(NCC5CC5)nc4)ccc32)c2ccccc2)cc1
3. CC(=O)c1cncc(-c2ccc3c(c2)NC(=O)/C3=C(\Nc2ccc(CN(C)C)cc2)c2ccccc2)c1
4. CC(C)Nc1ccc(-c2ccc3c(c2)NC(=O)/C3=C(\Nc2ccc(C(=O)N3CCC[C@@H]3CN3CCCC3)cc2)c2ccccc2)cn1
5. CCNC(=O)C#Cc1ccc2c(c1)NC(=O)/C2=C(\Nc1ccc(N2CCN(C)CC2)cc1)c1ccccc1
6. CN(C)Cc1ccc(N/C(=C2\C(=O)Nc3cc(-c4ccc(C(=O)O)nc4)ccc32)c2ccccc2)cc1
7. CC(C)Nc1ccc(-c2ccc3c(c2)NC(=O)/C3=C(\Nc2ccc(C(=O)N3CCC(N4CCCC4)CC3)cc2)c2ccccc2)cn1

**A:**
1. 2.08
2. 3.84
3. 13.5
4. 1.43
5. 1.39
6. 157
7. 4

----------
Molecular target: Xenopus laevis Aurora B/INCENP complex (Xenopus laevis, UniProt Q6DE08)
Construct: equipped at the N-terminal position with a GST tag (amino acids 60-361); GST (N, cleaved yes); made in house; host or cells: E. coli BL21 (DE3)
Assay: Aurora-B kinase assay (radioactive enzyme inhibition assay)
Type: biochemical
Conditions: test substance at 1 μM; percentage of the positive control (maximum value without test substance)
Description: Example Aurora-B Kinase Assay A radioactive enzyme inhibition assay was developed using E. coli-expressed recombinant Xenopus laevis Aurora B wild-type protein equipped at the N-terminal position with a GST tag (amino acids 60-361) in a complex with Xenopus laevis INCENP (amino acids 790-847), which is obtained from bacteria and purified. In equivalent manner a Xenopus laevis Aurora B mutant (G96V) in a complex with Xenopus laevis INCENP^790-847 may also be used. Expression and Purification […]
For each of the compounds below, state its remaining activity at 1 µM.
Answers are plain numbers, in %.

**Q:** Under Xenopus laevis Aurora B/INCENP complex (Xenopus laevis, UniProt Q6DE08), report remaining activity at 1 µM for CNC(=O)C#Cc1cc2c(cc1S(=O)(=O)c1ccc(F)cc1)/C(=C(/Nc1ccc(CN(C)C)cc1)c1ccccc1)C(=O)N2 [Example 151]
**A:** 1.89

**Q:** Report value only: remaining activity at 1 µM, Xenopus laevis Aurora B/INCENP complex (Xenopus laevis, UniProt Q6DE08), CN(C)Cc1ccc(N/C(=C2\C(=O)Nc3cc(-c4ccc(S(C)(=O)=O)cc4)ccc32)c2ccccc2)cc1 [Example 12]
**A:** 40

**Q:** Provide remaining activity at 1 µM, system Xenopus laevis Aurora B/INCENP complex (Xenopus laevis, UniProt Q6DE08), entry CC(=O)Nc1ccc(-c2ccc3c(c2)NC(=O)/C3=C(\Nc2ccc(CN(C)C)cc2)c2ccccc2)cc1 [Example 72]
**A:** 3.37

Please look at the following compound next.
**Q:** State remaining activity at 1 µM on Xenopus laevis Aurora B/INCENP complex (Xenopus laevis, UniProt Q6DE08). Entry: CC(C)Nc1ncc(-c2ccc3c(c2)NC(=O)/C3=C(\Nc2ccc(OCCCN(C)C)cc2)c2ccccc2)cn1 [Example 89]
**A:** 5.97

----------
molecular target: Xenopus laevis Aurora B/INCENP complex (Xenopus laevis, UniProt Q6DE08); construct: equipped at the N-terminal position with a GST tag (amino acids 60-361); GST (N, cleaved yes); made in house; host or cells: E. coli BL21 (DE3); assay: Aurora-B kinase assay (radioactive enzyme inhibition assay); type: biochemical; conditions: test substance at 1 μM; percentage of the positive control (maximum value without test substance)
assay-endpoint: remaining activity at 1 µM (%)
One number for each entry, in %.

Examples from the recorded data:
**Q:** Fill in reported remaining activity at 1 µM for this entry: CCN1CCC2(CCN(C(=O)c3ccc(N/C(=C4\C(=O)Nc5cc(-c6ccc(NC(C)C)nc6)ccc54)c4ccccc4)cc3)C2)C1 (centres unmarked)
**A:** 3.03

**Q:** Tell me remaining activity at 1 µM reported for "Cc1cnccc1-c1ccc2c(c1)NC(=O)/C2=C(\Nc1ccc(CN(C)C)cc1)c1ccccc1"
**A:** 107

**Q:** Provide one value: measured remaining activity at 1 µM of "CC(C)Nc1ccc(-c2ccc3c(c2)NC(=O)/C3=C(\Nc2ccc(C(=O)N3CCN(C(C)C)CC3)cc2)c2ccccc2)cn1"
**A:** 2.69

**Q:** Look up remaining activity at 1 µM of "CN(C)Cc1ccc(N/C(=C2\C(=O)Nc3cc(-c4cccnc4)ccc32)c2ccccc2)cc1" and report it.
**A:** 24.5

**Q:** Answer with reported remaining activity at 1 µM of "CC(C)Nc1ccc(-c2ccc3c(c2)NC(=O)/C3=C(\Nc2ccc(C(=O)N3CCC[C@H]3CN3CCCC3)cc2)c2ccccc2)cn1"
**A:** 4.67

Go through the list and state remaining activity at 1 µM for each entry.
1. CN(C)Cc1ccc(N/C(=C2\C(=O)Nc3cc(-c4cnc(N(C)C)nc4)ccc32)c2ccccc2)cc1
2. COc1cc(N/C(=C2\C(=O)Nc3cc(-c4ccc(NC(C)C)nc4)ccc32)c2ccccc2)ccc1C(=O)N(C)CCN(C)C
3. Cc1ccc(-c2ccc3c(c2)NC(=O)/C3=C(\Nc2ccc(CN(C)C)cc2)c2ccccc2)cn1
4. CN(C)Cc1ccc(N/C(=C2\C(=O)Nc3cc(-c4ccc(N5CCOCC5)nc4)ccc32)c2ccccc2)cc1

**A:**
[27.9, 2.35, 21.1, 20.7]

meta.source: patent US8853420B2
